# assay: Aqueous solubility of compound
# Format: physicochemical
# particulars: buffer
The entries below are paired with their reported solubility.
Only the number, expressed in µg/mL, is required.

Worked cases, answers included:
smiles_representation	solubility [µg/mL]
CS(=O)(=O)Nc1ccc(CNC(=O)c2ccc(C3(C(F)(F)F)CC3)cc2)c(Cl)c1	2.9
CS(=O)(=O)Nc1ccc(CNC(=O)c2ccc(C(F)(F)F)cc2)c(Cl)c1	5.7

Continue with the next compound.
Enquiry: Query: solubility; subject: `CC(C)(O)c1ccc(C(=O)NCc2ccc(NS(C)(=O)=O)cc2Cl)cc1`
Return: 48

----------
# assayed_target: Bifunctional epoxide hydrolase 2 (Homo sapiens)
# Sequence (P34913 whole entry): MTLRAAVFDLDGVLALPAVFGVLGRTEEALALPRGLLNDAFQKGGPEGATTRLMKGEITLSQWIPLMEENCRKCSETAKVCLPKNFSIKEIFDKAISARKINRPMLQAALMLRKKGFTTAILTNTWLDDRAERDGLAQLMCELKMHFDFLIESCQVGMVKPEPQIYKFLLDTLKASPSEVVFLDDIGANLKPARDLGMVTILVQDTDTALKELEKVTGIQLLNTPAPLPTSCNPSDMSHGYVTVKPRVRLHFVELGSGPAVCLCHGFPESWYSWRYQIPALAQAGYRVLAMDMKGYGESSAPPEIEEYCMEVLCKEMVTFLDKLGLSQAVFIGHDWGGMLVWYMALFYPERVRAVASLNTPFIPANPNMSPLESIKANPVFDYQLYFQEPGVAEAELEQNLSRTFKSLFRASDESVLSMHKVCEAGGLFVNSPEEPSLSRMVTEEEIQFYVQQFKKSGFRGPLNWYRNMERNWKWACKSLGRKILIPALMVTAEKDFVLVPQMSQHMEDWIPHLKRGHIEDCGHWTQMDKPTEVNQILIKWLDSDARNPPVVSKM
# assay: Inhibition of recombinant human sEH using PHOME as substrate preincubated for 30 mins followed by substrate addition and measured after 30 mins by fluoresence-based assay
log10(IC50) listing for selected compounds.
A difference of one corresponds to tenfold IC50; all values are log10 with IC50 in nM.

Some compounds with known log10(IC50) results, for comparison:
smiles_representation	recorded_endpoint	experimental_result
CS(=O)(=O)Nc1ccc(CNC(=O)c2ccc(N3CCC3)cc2)c(Cl)c1	log10(IC50)	1.97
COC(C)(C)c1ccc(C(=O)NCc2ccc(NS(C)(=O)=O)cc2Cl)cc1	log10(IC50)	0.95
CC(C)(C)c1ccc(C(=O)NCc2c(F)cc(NS(C)(=O)=O)cc2F)cc1	log10(IC50)	1.93
CC(C)Oc1ccc(C(=O)NCc2ccc(NS(C)(=O)=O)cc2Cl)cc1	log10(IC50)	1.08
CCS(=O)(=O)Nc1ccc(CNC(=O)c2ccc(C(C)(C)C)cc2)c(Cl)c1	log10(IC50)	0.79

Enquiry: Need log10(IC50), item `CC(C)(O)c1ccc(C(=O)NCc2ccc(NS(C)(=O)=O)cc2Cl)cc1`
Return: 2.23

Enquiry: Recorded log10(IC50) of `CC(C)S(=O)(=O)Nc1ccc(CNC(=O)c2ccc(C(C)(C)C)cc2)c(Cl)c1` , please.
Return: 1.05

Enquiry: Need log10(IC50), item `CCOc1ccc(C(=O)NCc2ccc(NS(C)(=O)=O)cc2Cl)cc1`
Return: 1.49

Enquiry: Sample `CS(=O)(=O)Nc1ccc(CNC(=O)c2ccc(C34CC(C3)C4)cc2)c(Cl)c1` — what was its log10(IC50)?
Return: 1.69

Enquiry: Look up log10(IC50): `CS(=O)(=O)Nc1ccc(CNC(=O)c2ccc(N3CCOCC3)cc2)c(Cl)c1`
Return: 2.24
